Test system: Pseudomonas fluorescens HPPD polypeptide (wild-type and mutants)
Test: Coupled HPPD activity assay: turnover and residual turnover in crude HPPD polypeptide extracts with and without Cmpd. 1
Type: biochemical
Settings: 100 μM Cmpd. 1, normalised to turnover without inhibitor
measured.endpoint: Residual turnover [%]

Fill in Residual turnover [%] for record SEQ ID NO:47 (protein, mutant HPPD polypeptide) MADLYENPMGLMGFEFIEFASPTPGTLEPIFEIMGFTKVATHRSKNVHLYRQGEINLILNNEPNSIASYFAAEHGPSVCGMAFRVKDSQKAYNRALELGAQPIHIDTGPMELNLPAIKGIGGAPLYLIDRFGEGSSIYDIDFVYLEGVERNPVGAGLKVIDHLTHNVYRGRMVYWANFYEKLFNFREARYFDIKGEYTGLTSKAMSAPDGMIKIPLNEESSKGAGQIEEFLMQFNGEGIQHVAFLTDDLVKTWDALKKIGMRFMTAPGDEYYEMLEGRLPDHGEPVDQLQARGILLDGSSVEGDKRLLLQIFSERLMGPVFFEFIQRKGDDGFGPDSFKVLFESIERDQVRRGVLTAD
68%

Fill in Residual turnover [%] for record SEQ ID NO:5 (protein, mutant HPPD polypeptide) MADLYENPMGLMGFEFIEFASPTPGTLEPIFEIMGFTKVATHRSKNVHLYRQGEINLILNNEPNSIASYFAAEHGPSVCGMAFRVKDSQKAYNRALELGAQPIHIDTGPMELNLPAIKGIGGAPLYLIDRFGEGSSIYDIDFVYLEGVERNPVGAGLKVIDHLTHNVYRGRMVYWANFYEKLFNFREARYFDIKGEYTGLTSKAMSAPDGMIRIPLNEESSKGAGQIEEFLMQFNGEGIQHVAFLTDDLVKTWDALKKIGMRFMTAPGDEYYEMLEGRLPDHGEPVDQLQARGILLDGSSVEGDKRLLLQIFSERLMGPVFFEFIQRKGDDGFGPDSFKVLFESIERDQVRRGVLTAD
44%

Fill in Residual turnover [%] for record SEQ ID NO:13 (protein, mutant HPPD polypeptide) MADLYENPMGLMGFEFIEFASPTPGTLEPIFEIMGFTKVATHRSKNVHLYRQGEINLILNNEPNSIASYFAAEHGPSVCGMAFRVKDSQKAYNRALELGAQPIHIDTGPMELNLPAIKGIGGAPLYLIDRFGEGSSIYDIDFVYLEGVERNPVGAGLKVIDHLTHNVYRGRMVYWANFYEKLFNFREARYFDIKGEYTGLTSKAMSAPDGMIRIPLNEESSKGAGQIEEFLMQFNGEGIQHVAFLTDDLVKTWDALKKIGMRFMTAPGDEYYEMLEGRLPDHGEPVDQLQARGILLDGSSVEGDKRLLLQIFSETLMGPVFFEFIQRKGDDGFGPDSFKVLFEQIERDQVRRGVLTAD
38%

Fill in Residual turnover [%] for record SEQ ID NO:21 (protein, mutant HPPD polypeptide) MADLYENPMGLMGFEFIEFASPTPGTLEPIFEIMGFTKVATHRSKNVHLYRQGEINLILNNEPNSIASYFAAEHGPSVCGMAFRVKDSQKAYNRALELGAQPIHIDTGPMELNLPAIKGIGGAPLYLIDRFGEGSSIYDIDFVYLEGVERNPVGAGLKVIDHLTHNVYRGRMVYWANFYEKLFNFREARYFDIKGEYTGLTSKAMSAPDGMIRIPLNEESSKGAGQIEEFLMQFNGEGIQHVAFLTDDLVKTWDALKKIGMRFMTAPGDEYYEMLEGRLPDHGEPVDQLQARGILLDGSSVEGDKRLLLQIFSETLMGPVFFEFIQRKGDDGFGPDSFKVLFEQMERDQVRRGVLTAD
38%

Fill in Residual turnover [%] for record SEQ ID NO:56 (protein, mutant HPPD polypeptide) MADLYENPMGLMGFEFIEFASPTPGTLEPIFEIMGFTKVATHRSKNVHLYRQGEINLILNNEPNSIASYFAAEHGPSVCGMAFRVKDSQKAYNRALELGAQPIHIDTGPMELNLPAIKGIGGAPLYLIDRFGEGSSIYDIDFVYLEGVERNPVGAGLKVIDHLTHNVYRGRMVYWANFYEKLFNFREARYFDIKGEYTGLTSKAMSAPDGMIRIPLNEESSKGAGQIEEFLMQFNGEGIQHVAFLTDDLVKTWDALKKIGMRFLTAPGDEYYEMLEGRLPDHGEPVDQLQARGILLDGSSVEGDKRLLLQIFSEQLMGPVFFEFIQRKGDDGFGPHSFKVLFEQMERDQVRRGVLTAD
75%

Fill in Residual turnover [%] for record SEQ ID NO:22 (protein, mutant HPPD polypeptide) MADLYENPMGLMGFEFIEFASPTPGTLEPIFEIMGFTKVATHRSKNVHLYRQGEINLILNNEPNSIASYFAAEHGPSVCGMAFRVKDSQKAYNRALELGAQPIHIDTGPMELNLPAIKGIGGAPLYLIDRFGEGSSIYDIDFVYLEGVERNPVGAGLKVIDHLTHNVYRGRMVYWANFYEKLFNFREARYFDIKGEYTGLTSKAMSAPDGMIRIPLNEESSKGAGQIEEFLMQFNGEGIQHVAFLTDDLVKTWDALKKIGMRFMTAPGDEYYEMLEGRLPDHGEPVDQLQARGILLDGSSVEGDKRLLLQIFSEKLMGPVFFEFIQRKGDDGFGPHSFKVLFESIERDQVRRGVLTAD
42%

Fill in Residual turnover [%] for record SEQ ID NO:6 (protein, mutant HPPD polypeptide) MADLYENPMGLMGFEFIEFASPTPGTLEPIFEIMGFTKVATHRSKNVHLYRQGEINLILNNEPNSIASYFAAEHGPSVCGMAFRVKDSQKAYNRALELGAQPIHIDTGPMELNLPAIKGIGGAPLYLIDRFGEGSSIYDIDFVYLEGVERNPVGAGLKVIDHLTHNVYRGRMVYWANFYEKLFNFREARYFDIKGEYTGLTSKAMSAPDGMIRIPLNEESSKGAGQIEEFLMQFNGEGIQHVAFLTDDLVKTWDALKKIGMRFMTAPGDEYYEMLEGRLPDHGEPVDQLQARGILLDGSSVEGDKRLLLQIFSETLMGPVFFEFIQRKGDDGFGPDSFKVLFESIERDQVRRGVLTAD
33%

Each recorded value in this set is attributed to patent US11371056B2.
